# System: rat hepatocytes
# assay.details: Metabolic stability in rat hepatocytes
# Format: in vitro ADME

{"smiles.code": "Cc1ncsc1Cn1c(CN2CCC(c3cccc(OCc4ccc(C#N)cc4F)n3)CC2)nc2ccc(C(=O)O)cc21", "assay.target": "rat hepatocytes", "CLint relative to reference standard": "significantly lower"}
{"smiles.code": "[2H]C([2H])(Oc1cccc(C2CCN(Cc3nc4ccc(C(=O)O)cc4n3Cc3cncs3)CC2)n1)c1ccc(C#N)cc1F", "assay.target": "rat hepatocytes", "CLint relative to reference standard": "significantly lower"}

###

# assay.details: Pharmacokinetics in hGLP-1R mice after oral dosing
# Type: in vivo, male C57BL/6J hGLP-1R mouse
# setup.conditions: male, C57BL/6J hGLP-1R, mouse, plasma, po, 0.3 mg/kg, hGLP-1R mouse plasma, PO 0.3 mg/kg, 8 h; read-out: Mean Concentration
quantity.kind: concentration at 8 h

Prompt: Look up concentration at 8 h: N#Cc1ccc(COc2cccc(C3CCN(Cc4nc5ccc(C(=O)O)cc5n4Cc4cncs4)CC3)n2)c(F)c1 [Compound 2]
Response: 1.99 ng/mL

###

# assay.details: Pharmacokinetics in hGLP-1R mice after oral dosing
# Type: in vivo, male C57BL/6J hGLP-1R mouse
# setup.conditions: male, C57BL/6J hGLP-1R, mouse, plasma, po, 1 mg/kg, hGLP-1R mouse plasma, PO 1 mg/kg, mean; read-out: Tmax
quantity.kind: Tmax (min)
Please state the figure in min; there is no need to write the unit.

{"molecule": "N#Cc1ccc(COc2cccc(C3CCN(Cc4nc5ccc(C(=O)O)cc5n4C[C@@H]4CCO4)CC3)n2)c(F)c1 [Reference Compound A, reference compound]", "assay.value": 40}

Now consider a different molecule.
Prompt: Give its Tmax value. Item: N#Cc1ccc(COc2cccc(C3CCN(Cc4nc5ccc(C(=O)O)cc5n4Cc4cncs4)CC3)n2)c(F)c1
Response: 30

###

# assay.details: Pharmacokinetics in hGLP-1R mice after oral dosing
# Format: in vivo, male C57BL/6J hGLP-1R mouse
# setup.conditions: male, C57BL/6J hGLP-1R, mouse, plasma, po, 0.3 mg/kg, hGLP-1R mouse plasma, PO 0.3 mg/kg, 0.5 h; read-out: Mean Concentration
# Protocol: IPGTT (120 min)—PK bleeding: 40 μL blood samples (all treatment groups) were collected from mice under the jaw at IPGTT-120 min after blood glucose measurement into pre-chilled EDTA-2K tubes. Blood samples were processed for plasma by centrifugation at 4° C., 3200×g for 10 min. […] The linear/log trapezoidal rule was applied in obtaining the PK parameters. Individual plasma concentration values that were below the lower limit of quantitation (LOQ) were excluded from the PK parameter calculation. […]
# concentration at 0.5 h per record follows
Note: unit ng/mL is implicit; provide only the numeric part.

{"compound": "N#Cc1ccc(COc2cccc(C3CCN(Cc4nc5ccc(C(=O)O)cc5n4C[C@@H]4CCO4)CC3)n2)c(F)c1 [Reference Compound A, reference compound]", "measurement.units": "ng/mL", "concentration at 0.5 h": 17.3}

// next entry
Prompt: Which value of concentration at 0.5 h has been reported for N#Cc1ccc(COc2cccc(C3CCN(Cc4nc5ccc(C(=O)O)cc5n4Cc4cncs4)CC3)n2)c(F)c1 [Compound 2] in the records?
Response: 80.6

###

# assay.details: Pharmacokinetics in hGLP-1R mice after oral dosing
# Assay type: in vivo, male C57BL/6J hGLP-1R mouse
# setup.conditions: male, C57BL/6J hGLP-1R, mouse, plasma, po, 3 mg/kg, hGLP-1R mouse plasma, PO 3 mg/kg, mean; read-out: Cmax
quantity.kind: Cmax (ng/mL)
Give a bare numeral; the unit ng/mL is implied.

Prompt: So what's the measured Cmax for this one? N#Cc1ccc(COc2cccc(C3CCN(Cc4nc5ccc(C(=O)O)cc5n4Cc4cncs4)CC3)n2)c(F)c1
Response: 1820

###

# assay.details: Pharmacokinetics in hGLP-1R mice after oral dosing
# Format: in vivo, male C57BL/6J hGLP-1R mouse
# setup.conditions: male, C57BL/6J hGLP-1R, mouse, plasma, po, 1 mg/kg, hGLP-1R mouse plasma, PO 1 mg/kg, mean; read-out: T1/2 (converted)
quantity.kind: half-life (h)
# value in h; strip the unit string

Prompt: Which half-life value is on record for N#Cc1ccc(COc2cccc(C3CCN(Cc4nc5ccc(C(=O)O)cc5n4Cc4cncs4)CC3)n2)c(F)c1 [Compound 2] ?
Response: 1.42

Prompt: Can you check N#Cc1ccc(COc2cccc(C3CCN(Cc4nc5ccc(C(=O)O)cc5n4C[C@@H]4CCO4)CC3)n2)c(F)c1 [Reference Compound A, reference compound] next?
Response: 1.99

###

Items are presented alongside their recorded Tmax.
# assay.details: Pharmacokinetics in hGLP-1R mice after oral dosing
# Type: in vivo, male C57BL/6J hGLP-1R mouse
# setup.conditions: male, C57BL/6J hGLP-1R, mouse, plasma, po, 1 mg/kg, hGLP-1R mice, total, PO 1.0 mg/kg; read-out: Tmax Median
# Description: IPGTT (120 min)—PK bleeding: 40 μL blood samples (all treatment groups) were collected from mice under the jaw at IPGTT-120 min after blood glucose measurement into pre-chilled EDTA-2K tubes. Blood samples were processed for plasma by centrifugation at 4° C., 3200×g for 10 min. […] The linear/log trapezoidal rule was applied in obtaining the PK parameters. Individual plasma concentration values that were below the lower limit of quantitation (LOQ) were excluded from the PK parameter calculation. […]
// return numeric value only (unit: min, not printed)

{"compound": "N#Cc1ccc(COc2cccc(C3CCN(Cc4nc5ccc(C(=O)O)cc5n4C[C@@H]4CCO4)CC3)n2)c(F)c1 [Reference Compound A, reference compound]", "measurement.units": "min", "assay.value": 30}

Please find the next compound below.
Prompt: Query (compound): N#Cc1ccc(COc2cccc(C3CCN(Cc4nc5ccc(C(=O)O)cc5n4Cc4cncs4)CC3)n2)c(F)c1 ; field requested: Tmax
Response: 30

###

# assay.details: Rat pharmacokinetics, oral dosing
# Type: in vivo, Sprague-Dawley rats
# setup.conditions: male, Sprague-Dawley; rat plasma, 3 mg/kg PO (0.6 mg/mL)
Documented half-life across a set of compounds
All answers are understood in h, so give the number only.

{"compound": "N#Cc1ccc(COc2cccc(C34CCN(Cc5nc6ccc(C(=O)O)cc6n5Cc5cncs5)CC3C4)n2)c(F)c1 (centres unmarked)", "measurement.units": "h", "assay.value": 3.14}

Prompt: So what's the measured half-life for this one? O=C(O)c1ccc2nc(CN3CC[C@@]4(c5cccc(OCc6ccc(Cl)cc6F)n5)C[C@H]4C3)n(Cc3cncs3)c2c1
Response: 1.52

###

# assay.details: Metabolic stability in rat hepatocytes
# Format: in vitro ADME
# setup.conditions: cryopreserved hepatocytes, 1 μM
quantity.kind: CLint scaled at 1 μM (mL/min/kg)
State the answer as a number, implicitly in mL/min/kg.

Here is how some compounds turned out for CLint scaled at 1 μM.
{"compound": "N#Cc1ccc(COc2ccnc(C3CCN(Cc4nc5ccc(C(=O)O)cc5n4Cc4cncs4)CC3)n2)c(F)c1", "assay.value": 38.9}
{"compound": "CC1(c2ccc(C#N)cc2F)Oc2cccc(C3CCN(Cc4nc5ccc(C(=O)O)cc5n4Cc4cncs4)CC3)c2O1 (stereo not drawn)", "assay.value": 30.2}
{"compound": "N#Cc1cnc(COc2cccc(C3CCN(Cc4nc5ccc(C(=O)O)cc5n4Cc4cncs4)CC3)n2)c(F)c1", "assay.value": 35.8}
{"compound": "N#Cc1ccc(COc2cccc(N3CCN(Cc4nc5ccc(C(=O)O)cc5n4Cc4cncs4)CC3)n2)c(F)c1", "assay.value": 32.5}

Prompt: Field request: CLint scaled at 1 μM | item: [2H]C([2H])(Oc1cccc(C2CCN(Cc3nc4ccc(C(=O)O)cc4n3Cc3cncs3)CC2)n1)c1ccc(C#N)cc1F
Response: 29

Prompt: Thanks! And N#Cc1ccc(COc2cccc(C3CCN(Cc4nc5ccc(C(=O)O)cc5n4Cc4cncs4)CC3)n2)c(F)c1 ?
Response: 42.6

Prompt: Param item: Cc1ncsc1Cn1c(CN2CCC3(c4cccc(OCc5ccc(C#N)cc5F)n4)CC3C2)nc2ccc(C(=O)O)cc21 (stereo not drawn)
Response: 91.7

Prompt: Same for [2H]C([2H])(Oc1cccc(C2CCN(Cc3nc4ccc(C(=O)O)cc4n3Cc3cncs3)CC2)n1)c1ccc(Cl)cc1F
Response: 24.1

Prompt: Moving on to N#Cc1ccc(COc2cccc(C34CCN(Cc5nc6ccc(C(=O)O)cc6n5Cc5cncs5)CC3C4)n2)c(F)c1 (stereo not drawn)
Response: 92.8

Prompt: Similarly, O=C(O)c1ccc2nc(CN3CCC(c4nccc(OCc5ccc(Cl)cc5F)n4)CC3)n(Cc3cncs3)c2c1 ?
Response: 57.9

Prompt: For Cc1ncsc1Cn1c(CN2CCC(c3cccc(OCc4ccc(C#N)cc4F)n3)CC2)nc2ccc(C(=O)O)cc21 then?
Response: 36

Prompt: What would you report for N#Cc1ccc(COc2cccc(C3CCN(Cc4nc5ccc(C(=O)O)cc5n4C[C@@H]4CCO4)CC3)n2)c(F)c1 [Reference Compound A, reference compound] ?
Response: 48.2
